Data credit: patent US20230357447A1

Target: T1, Anti-CD28 scFv (VH-linker 1-VL) (biotinylated (site not stated))
T1 construct: biotinylated and captured on neutravidin coated plates in the phage ELISA
T1 sequence (scFv, as listed by the source): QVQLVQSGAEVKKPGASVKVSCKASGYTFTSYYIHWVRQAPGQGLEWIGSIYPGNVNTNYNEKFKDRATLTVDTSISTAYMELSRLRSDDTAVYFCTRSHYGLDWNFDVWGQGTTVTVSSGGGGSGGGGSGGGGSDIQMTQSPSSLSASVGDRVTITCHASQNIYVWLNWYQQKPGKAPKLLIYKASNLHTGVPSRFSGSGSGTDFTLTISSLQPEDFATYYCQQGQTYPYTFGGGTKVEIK
Assay: phage ELISA, scFv wells pre-incubated with soluble CD28 (competitor); background signal 0.061
MEASUREMENT NAME: Phage binding ELISA CD28 scFv signal in presence of CD28
Response field accepts a number only; no unit should be typed.

// worked examples, Phage binding ELISA CD28 scFv signal in presence of CD28 included
| BINDER | RECORDED NUMBER |
| --- | --- |
| MDWCPIDMWDQCFN [Phage-40] | 0.297 |
| MDWCPIYLWDECFN [Phage-106] | 0.215 |
| IDWCPRYLWDECYN [Phage-48] | 0.153 |

Let us move to another entry and its Phage binding ELISA CD28 scFv signal in presence of CD28.
*Q* Param item = MDWCPRDLWAECFN [Phage-107] ; retrieve measured Phage binding ELISA CD28 scFv signal in presence of CD28.
*A* 0.207
